This section presents compounds with their documented fold induction at 1 µM values.
# Test system: T-cell
# test: CD25 cell surface staining on T-cells stimulated with anti-CD3 antibody alone (Biological Example 2)
# Format: cell-based, human
# condition.summary: Homo sapiens, T-cell; 1 μM Cbl-b inhibitor; fold change over baseline (anti-CD3/anti-CD28 stimulated T-cells without inhibitor); read-out: CD25 staining Anti-CD3 stimulation
# Excerpt: Methods for experimentally determining increased T-cell activation, increased T-cell proliferation, decreased T-cell exhaustion, and/or decreased T-cell tolerance are well known in the art. Modulation of activity of an immune cell, such as a T-cell, a B cell or a NK cell can be measured by determining a baseline value for a parameter of interest (e.g., cytokine secretion). […] A positive response for immune cell activation can then be determined by the obtained reference value. […]

| compound | fold induction at 1 µM |
| --- | --- |
| Cn1cnnc1CC1(c2cccc(N3Cc4c(cc(C(N5CCCC5)C(F)(F)F)cc4C(F)(F)F)C3=O)c2)COC1 (stereo not shown) | 0.801 to 1 |
| Cn1cnnc1[C@H](F)C1(c2cccc(N3Cc4c(cc(CN5CCC(F)CC5)cc4C(F)(F)F)C3=O)c2)COC1 [Example 670b] | > 1 |
| COC1CCN(Cc2cc3c(c(C(F)(F)F)c2)CN(c2cccc(C4(Cc5nncn5C)COC4)c2)C3=O)CC1 | > 1 |
| CN1CC2CC(C1)N2c1cc(C(=O)Nc2cccc(C3(Cc4nncn4C)COC3)c2)nc(C2CC2)n1 | > 1 |
| CN1CCN(Cc2cc3c(c(C(F)(F)F)c2)CN(c2cccc(C4(Cc5nncn5C)COC4)c2)C3=O)CC1 | > 1 |
| CO[C@@H]1CCN(Cc2cc3c(c(C(F)(F)F)c2)CN(c2cccc(C4(Cc5nncn5C)COC4)c2)C3=O)C[C@@H]1F (relative stereo) | > 1 |
| Cc1cc(C(=O)Nc2cccc(C3(Cc4nncn4C)COC3)c2)n2ncc(C)c2n1 | 0.801 to 1 |
| C[C@H](Cc1nncn1C)c1cc(N2Cc3c(cccc3C(F)(F)F)C2=O)nc(C2(C)CC2)c1 | < 0.6 |
| Cn1cnnc1CC1(c2cccc(N3Cc4c(cc(C5CCC5)cc4C(F)(F)F)C3=O)c2)COC1 | 0.801 to 1 |
| Cn1cnnc1CC1(c2cccc(N3Cc4c(cc(N5CC(C(F)F)C5)nc4C4CC4)C3=O)c2)COC1 | 0.801 to 1 |

----------
This section presents compounds with their documented fold induction at 1 µM values.
# Test system: T-cell
# test: IL-2 secretion from T-cells co-stimulated with anti-CD3 and anti-CD28 antibody (Biological Example 2)
# Assay type: cell-based, human
# condition.summary: Homo sapiens, T-cell, 1 μM compound; primary human total T-cells; baseline = anti-CD3/anti-CD28 stimulated cells without inhibitor; read-out: IL-2 secretion, Anti-CD3/Anti-CD28 stimulation, fold change over baseline

| compound | target.or.system | fold induction at 1 µM |
| --- | --- | --- |
| C[C@H](Cc1nncn1C)c1cccc(N2Cc3c(cc([C@H](C)N4CC[C@H](F)C4)cc3C(F)(F)F)C2=O)c1 [Compound 404] | T-cell | > 7.5 |
| Cc1conc1CC1(c2cccc(N3Cc4c(cc(CN5CCC6(CC6)C5)cc4C(F)(F)F)C3=O)c2)COC1 [Compound 535] | T-cell | > 7.5 |
| Cn1cnnc1C(F)(F)[C@](C)(F)c1cccc(N2Cc3c(cc(CN4CC[C@H](C#N)C4)cc3C(F)(F)F)C2=O)c1 [Compound 454] | T-cell | > 7.5 |
| Cn1cnnc1CC1(c2cccc(N3Cc4c(cc(CC5CCCO5)cc4C(F)(F)F)C3=O)c2)COC1 (stereo not shown) [Compound 529] | T-cell | > 7.5 |
| C[C@@H](c1cccc(N2Cc3c(cccc3C(F)(F)F)C2=O)c1)[C@H](F)c1nncn1C (racemic) [Compound 473] | T-cell | 1.01 to 2.5 |
| C[C@H](Cc1nncn1C)c1cccc(N2Cc3c(cc([C@H]4CCCNC4)cc3C(F)(F)F)C2=O)c1 [Compound 383] | T-cell | 5 to 7.5 |
| Cn1cnnc1CC1(c2cccc(N3Cc4c(cc(CN5CC6(CC6)C5)cc4C(F)(F)F)C3=O)c2)COC1 [Compound 487] | T-cell | > 7.5 |
